Assayed system: HLA-A*29:02
Test: IEDB peptide-MHC binding, purified MHC/direct/fluorescence; filed as Kd, often an IC50 or EC50 that approximates it; bounds were set here for any values at or beyond the usual limits of such assays
Settings: source organism: Mammarenavirus juninense
Measurement name: Kd

Lookup: Give Kd for "GKLDPTNTL"
Found: ≥ 20 µM

====

Assayed system: HLA-A*02:01
Test: IEDB peptide-MHC binding, purified MHC/direct/fluorescence; filed as Kd, often an IC50 or EC50 that approximates it; bounds were set here for any values at or beyond the usual limits of such assays
Settings: source organism: Vibrio parahaemolyticus AQ3810
Measurement name: Kd

Lookup: # return Kd for "EASTWLDIF" , test system: HLA-A*02:01
Found: ≥ 20 µM

====

Assayed system: HLA-A*01:01
Test: IEDB peptide-MHC binding, purified MHC/competitive/fluorescence; filed as Kd, often an IC50 or EC50 that approximates it; bounds were set here for any values at or beyond the usual limits of such assays
Settings: source organism: Mus musculus
pKd: −log10 of the molar value.
Measurement name: pKd

Lookup: Provide one value: measured pKd of "AFFAERLYY"
Found: ≤ 4.70

====

Assayed system: HLA-B*08:02
Test: IEDB peptide-MHC binding, purified MHC/direct/fluorescence; filed as Kd, often an IC50 or EC50 that approximates it; bounds were set here for any values at or beyond the usual limits of such assays
Settings: source organism: Yersinia enterocolitica subsp. enterocolitica 8081
pKd: −log10 of the molar value.
Measurement name: pKd

Lookup: Please give the documented pKd of "SDDQLRLLK"
Found: ≤ 4.70

====

Assayed system: HLA-A*26:02
Test: IEDB peptide-MHC binding, purified MHC/direct/fluorescence; filed as Kd, often an IC50 or EC50 that approximates it; bounds were set here for any values at or beyond the usual limits of such assays
Settings: source organism: Picosynechococcus sp. PCC 7002
Measurement name: pKd
Notebook: values listed as pKd are -log10 of the concentration (mol/L).

Lookup: Please report the measured pKd for "DTVLFNAGL"
Found: 7.39

====

Assayed system: HLA-A*11:01
Test: IEDB peptide-MHC binding, purified MHC/competitive/radioactivity; filed as Kd, often an IC50 or EC50 that approximates it; bounds were set here for any values at or beyond the usual limits of such assays
Settings: source organism: Dengue virus 3 Singapore/8120/1995
Measurement name: pKd
Expect pKd as a plain number equal to -log10 of the molar concentration.

Lookup: Tell me its pKd given "AMCLNTFVLK" as the entry.
Found: 7.63

====

Assayed system: HLA-A*69:01
Test: IEDB peptide-MHC binding, purified MHC/competitive/fluorescence; filed as Kd, often an IC50 or EC50 that approximates it; bounds were set here for any values at or beyond the usual limits of such assays
Settings: source organism: Coxiella burnetii
Measurement name: Kd

Lookup: Note Kd for the sequence shown: "KFFMVHSLK"
Found: ≥ 20 µM

====

Assayed system: HLA-A*03:01
Test: IEDB peptide-MHC binding, purified MHC/competitive/fluorescence; bounds were set here for any values at or beyond the usual limits of such assays
Settings: source organism: Tarsius lariang
pIC50: −log10 of the molar value.
Measurement name: pIC50

Lookup: Please supply the value of reported pIC50 for the item "TEAEKWPFF"
Found: ≤ 4.70

====

Assayed system: HLA-B*08:01
Test: IEDB peptide-MHC binding, purified MHC/direct/fluorescence; filed as Kd, often an IC50 or EC50 that approximates it; bounds were set here for any values at or beyond the usual limits of such assays
Settings: source organism: Hantavirus Monongahela-3
Measurement name: Kd

Lookup: Answer with the recorded Kd for the sequence listed here: "EKLKKKSAF"
Found: ≥ 5 µM
